Provide the recorded GI50 for the entries that follow.
tested on: OVCAR-3; experiment: NCI tumour cell line growth inhibition, 48 h
The source made the active and inactive calls. Cut-off read from the data, not from the text of the source: active = GI50 up to about 1.1 µM and inactive = higher.

Some solved entries appear below for comparison.
INSERT INTO measurements (compound, experimental_result) VALUES
  ('CCOC(=O)/C(C#N)=C/c1[nH]c(C(=O)OCc2ccccc2)c(C)c1C', '> 100 µM (inactive)'),
  ('O=C1C=C(NCCc2ccccc2)c2ccccc2C1=O', '1.44 µM (inactive)'),
  ('CCCCCCc1cc2cc(-c3cn4ccsc4n3)c(=O)oc2cc1O', '> 77.1 µM (inactive)'),
  ('CC(C)C1NC(=O)CC(c2ccccc2)N(N=O)C1c1ccccc1 (centres undefined)', '> 68.9 µM (inactive)'),
  ('COC(=O)CNC(=O)CCC(C)[C@H]1CCC2C3C(C[C@H](OC(C)=O)[C@@]21C)[C@@]1(C)CCC2(C[C@H]1C[C@H]3OC(C)=O)OOC1(CCCCC1)OO2 (some centres undefined)', '2.04 µM (inactive)'),
  ('CC1(C)CC(=O)C(CC2C(=O)c3ccccc3C2=O)C(=O)C1', '> 100 µM (inactive)'),
  ('COc1c(C)cc2c(C(C)C)c(O)c(O)c(C=O)c2c1O', '18.9 µM (inactive)'),
  ('COc1cccc2c1C(=O)c1c(O)c3c(c(O)c1C2=O)C[C@@](O)(C(C)O)C[C@@H]3OC1CC(N)C(O)C(C)O1 (some centres undefined)', '2.4 µM (inactive)');

Turning now to a further record.
Req: Entry `CC[C@@H]1C[C@H]2CC3c4[nH]c5ccc(O)cc5c4CCN(C2)C31` : reported GI50 = ?
Resp: > 100 µM (inactive)
